Numbers sourced from the supplement of paper PMC10567573.

protein stability index values by entry
B1: VAMP4 (parent)
chain: FLRGPSGPRFGPRNDKIKHVQNQV

- Variants of: B1
- test details: protein stability index of a GFP-peptide fusion (GPS, HEK-293T) (PSI 1-6); higher = more stable;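 also: lentivirally expressed fusions sorted by FACS into six bins by GFP to DsRed ratio, PSI derived from sequencing read proportions per bin multiplied by bin number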
- condition notes: c terminus: a fixed tail appended
recorded metric: protein stability index

mutation_spec=L2K recorded_metric="protein stability index" endpoint_value=3.21
mutation_spec=P5G recorded_metric="protein stability index" endpoint_value=2.43
mutation_spec=Q21D recorded_metric="protein stability index" endpoint_value=2.93
mutation_spec=P12C recorded_metric="protein stability index" endpoint_value=2.13
mutation_spec=P8L recorded_metric="protein stability index" endpoint_value=1.61
mutation_spec=F10L recorded_metric="protein stability index" endpoint_value=3.21
mutation_spec=R3Q recorded_metric="protein stability index" endpoint_value=2.6
mutation_spec=R9P recorded_metric="protein stability index" endpoint_value=2.49
mutation_spec=S6D recorded_metric="protein stability index" endpoint_value=2.95
mutation_spec=V24Y recorded_metric="protein stability index" endpoint_value=3
mutation_spec=D15F recorded_metric="protein stability index" endpoint_value=2.01
mutation_spec=I17E recorded_metric="protein stability index" endpoint_value=4.11
mutation_spec=P5W recorded_metric="protein stability index" endpoint_value=1.55
mutation_spec=P5R recorded_metric="protein stability index" endpoint_value=2.72
mutation_spec=Q23D recorded_metric="protein stability index" endpoint_value=3.04
mutation_spec=P8I recorded_metric="protein stability index" endpoint_value=2.53
mutation_spec=L2S recorded_metric="protein stability index" endpoint_value=3.37
mutation_spec=H19T recorded_metric="protein stability index" endpoint_value=1.54
mutation_spec=D15N recorded_metric="protein stability index" endpoint_value=2.7
mutation_spec=F1S recorded_metric="protein stability index" endpoint_value=3.71
mutation_spec=Q23H recorded_metric="protein stability index" endpoint_value=2.55
mutation_spec=V24F recorded_metric="protein stability index" endpoint_value=2.53
mutation_spec=G11T recorded_metric="protein stability index" endpoint_value=2.18
mutation_spec=K16G recorded_metric="protein stability index" endpoint_value=3.33
mutation_spec=P8E recorded_metric="protein stability index" endpoint_value=3.19
